Tested on: SW-620
ASSAY SUMMARY: Inhibitory activity against SW-620 human colon adenocarcinoma cells was determined.
Format: functional, cell-based
pIC50: −log10 of the molar value.
EXPERIMENTAL READOUT: pIC50

# annotated cases, reported pIC50 shown
SMILES STRING | MEASUREMENT
CN1CCN(CCCCNc2cc3c(cn2)cc(-c2c(Cl)cccc2Cl)c(=O)n3C)CC1 | 5.59
CN1CCN(c2ccc(Nc3cc4c(cn3)cc(-c3c(Cl)cccc3Cl)c(=O)n4C)cc2)CC1 | 5.37
Cn1c(=O)c(-c2c(Cl)cccc2Cl)cc2cnc(Nc3ccncc3)cc21 | 5.06
CCN(CC)CCOc1ccc(Nc2ncc3cc(-c4c(Cl)cccc4Cl)c(=O)n(C)c3n2)cc1 | 6.57
Cn1c(=O)c(-c2c(Cl)cccc2Cl)cc2cnc(Nc3ccc(N4CCOCC4)cc3)nc21 | 6.77

(a) CNc1ncc2cc(-c3c(Cl)cccc3Cl)c(=O)n(C)c2n1
(b) Cn1c(=O)c(-c2c(Cl)cccc2Cl)cc2cnc(N)nc21
(c) CN1CCN(c2ccc(Nc3ncc4cc(-c5c(Cl)cccc5Cl)c(=O)n(C)c4n3)cc2)CC1
Query: # sort list by recorded pIC50, greatest to least A ranking is expressed here by listing the labels in the requested order.
Result: c, b, a
(c: 6.92, b: 5.59, a: 5.30)

----------
SUBJECT OF TEST: Proto-oncogene tyrosine-protein kinase Src (Gallus gallus) (UniProt P00523)
pIC50: −log10 of the molar value.
EXPERIMENTAL READOUT: pIC50

SMILES STRING | pIC50
Cn1c(=O)c(-c2c(Cl)cccc2Cl)cc2cnc(Nc3ccccc3)nc21 | 7.70

(A) Cn1c(=O)c(-c2c(Cl)cccc2Cl)cc2cnc(Nc3ccncc3)nc21
(B) COc1ccc(Nc2ncc3cc(-c4c(Cl)cccc4Cl)c(=O)n(C)c3n2)cc1
(C) CNc1ncc2cc(-c3c(Cl)cccc3Cl)c(=O)n(C)c2n1
(D) CN1CCN(CCCNc2ncc3cc(-c4c(Cl)cccc4Cl)c(=O)n(C)c3n2)CC1
Query: List items by pIC50 in falling order. Please respond with the labels ordered as the question requires.
Result: A, B, D, C

----------
Test system: HT-29
ASSAY SUMMARY: Inhibitory activity against HT-29 human colon adenocarcinoma cells was determined.
Assay type: functional, cell-based
EXPERIMENTAL READOUT: IC50 (nM)

(1) CN1CCN(CCCCNc2cc3c(cn2)cc(-c2c(Cl)cccc2Cl)c(=O)n3C)CC1
(2) Cn1c(=O)c(-c2c(Cl)cccc2Cl)cc2cnc(Nc3ccncc3)nc21
(3) CN1CCN(CCCNc2ncc3cc(-c4c(Cl)cccc4Cl)c(=O)n(C)c3n2)CC1
(4) CN1CCN(c2ccc(Nc3cc4c(cn3)cc(-c3c(Cl)cccc3Cl)c(=O)n4C)cc2)CC1
Query: Sort the listed entries by IC50, smallest first. Give me the labels in the order the question wants.
Result: 2, 4, 1, 3
(2: 140 nM, 4: 830 nM, 1: 1600 nM, 3: 15000 nM)

----------
Test system: SW-620
ASSAY SUMMARY: Inhibitory activity against SW-620 human colon adenocarcinoma cells was determined.
Assay type: functional, cell-based
pIC50: −log10 of the molar value.
EXPERIMENTAL READOUT: pIC50

SMILES STRING | pIC50
CN1CCN(CCCNc2cc3c(cn2)cc(-c2c(Cl)cccc2Cl)c(=O)n3C)CC1 | 5.12
CCN(CC)CCOc1ccc(Nc2cc3c(cn2)cc(-c2c(Cl)cccc2Cl)c(=O)n3C)cc1 | 5.17

----------
pIC50: −log10 of the molar value.
Test system Fibroblast growth factor receptor 1 (Homo sapiens, UniProt P11362), pIC50 listed for each of the compounds.
EXPERIMENTAL READOUT: pIC50

(a) Cn1c(=O)c(-c2c(Cl)cccc2Cl)cc2cnc(Nc3ccc(N4CCOCC4)cc3)cc21
(b) Cn1c(=O)c(-c2c(Cl)cccc2Cl)cc2cnc(N)cc21
Query: Field: lower recorded pIC50 (choose a or b ) Answer format: the label of the selected item.
Result: a
(a: 5.06, b: 6.42)

(1) CCN(CC)CCCCNc1cc2c(cn1)cc(-c1c(Cl)cccc1Cl)c(=O)n2C
(2) Cn1c(=O)c(-c2c(Cl)cccc2Cl)cc2cnc(Nc3ccccc3)cc21
Query: Please indicate which entry, 1 or 2 , has the lower recorded pIC50 value. Refer to your chosen entry by its label in the reply.
Result: 2
(2: 5.66, 1: 7.10)

----------
Tested on: HT-29
ASSAY SUMMARY: Inhibitory activity against HT-29 human colon adenocarcinoma cells was determined.
Type: functional, cell-based
EXPERIMENTAL READOUT: IC50 (µM)

These recorded examples may help you get a feel for the data.
SMILES STRING | SUBJECT OF TEST | UNITS LABEL | IC50
Cn1c(=O)c(-c2c(Cl)cccc2Cl)cc2cnc(N)cc21 | HT-29 | µM | 1.9
CNc1ncc2cc(-c3c(Cl)cccc3Cl)c(=O)n(C)c2n1 | HT-29 | µM | 4.1
CCN(CC)CCOc1ccc(Nc2ncc3cc(-c4c(Cl)cccc4Cl)c(=O)n(C)c3n2)cc1 | HT-29 | µM | 0.28

(a) Cn1c(=O)c(-c2c(Cl)cccc2Cl)cc2cnc(Nc3ccncc3)cc21
(b) CN1CCN(c2ccc(Nc3ncc4cc(-c5c(Cl)cccc5Cl)c(=O)n(C)c4n3)cc2)CC1
(c) CCN(CC)CCOc1ccc(Nc2cc3c(cn2)cc(-c2c(Cl)cccc2Cl)c(=O)n3C)cc1
Query: Please order the records by their reported IC50, lowest number first. State the ranking by listing the labels in the requested order.
Result: b, c, a
(b: 0.24 µM, c: 0.75 µM, a: 3.7 µM)

----------
Platelet-derived growth factor receptor beta (Mus musculus, UniProt P05622): reported IC50 for various compounds.
Sequence (P05622 whole entry): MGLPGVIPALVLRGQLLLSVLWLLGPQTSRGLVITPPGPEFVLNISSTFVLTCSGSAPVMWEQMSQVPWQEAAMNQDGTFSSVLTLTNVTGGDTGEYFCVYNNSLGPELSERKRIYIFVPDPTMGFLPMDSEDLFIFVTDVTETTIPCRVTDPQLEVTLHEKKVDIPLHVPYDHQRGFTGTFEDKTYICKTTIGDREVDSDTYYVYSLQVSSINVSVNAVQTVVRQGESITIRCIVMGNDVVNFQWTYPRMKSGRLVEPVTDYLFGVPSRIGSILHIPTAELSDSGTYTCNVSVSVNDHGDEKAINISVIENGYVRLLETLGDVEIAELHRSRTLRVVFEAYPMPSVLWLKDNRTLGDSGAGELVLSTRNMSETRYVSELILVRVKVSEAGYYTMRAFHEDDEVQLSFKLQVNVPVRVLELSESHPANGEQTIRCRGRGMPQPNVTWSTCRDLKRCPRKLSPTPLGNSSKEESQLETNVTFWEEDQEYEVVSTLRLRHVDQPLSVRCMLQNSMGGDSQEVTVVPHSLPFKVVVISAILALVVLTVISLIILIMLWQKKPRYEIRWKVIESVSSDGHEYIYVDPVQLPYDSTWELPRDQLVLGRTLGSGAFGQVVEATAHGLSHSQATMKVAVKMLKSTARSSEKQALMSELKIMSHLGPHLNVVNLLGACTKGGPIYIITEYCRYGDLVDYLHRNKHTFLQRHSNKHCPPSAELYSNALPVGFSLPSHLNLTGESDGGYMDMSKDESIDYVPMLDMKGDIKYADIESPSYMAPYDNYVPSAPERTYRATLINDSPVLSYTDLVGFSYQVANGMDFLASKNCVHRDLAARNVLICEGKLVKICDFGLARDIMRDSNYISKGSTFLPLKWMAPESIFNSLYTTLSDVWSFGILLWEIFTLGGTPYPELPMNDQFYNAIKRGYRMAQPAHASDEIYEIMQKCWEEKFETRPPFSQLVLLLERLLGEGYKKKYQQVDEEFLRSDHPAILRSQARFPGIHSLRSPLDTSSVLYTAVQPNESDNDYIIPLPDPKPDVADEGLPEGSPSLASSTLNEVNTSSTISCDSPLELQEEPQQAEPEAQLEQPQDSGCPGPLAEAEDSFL
EXPERIMENTAL READOUT: IC50 (µM)

Examples from the recorded data:
SMILES STRING | SUBJECT OF TEST | EXPERIMENTAL READOUT | MEASUREMENT
CN1CCN(CCCNc2cc3nc(O)c(-c4c(Cl)cccc4Cl)cc3cn2)CC1 | Platelet-derived growth factor receptor beta (Mus musculus, UniProt P05622) | IC50 | 1.4
Cn1c(=O)c(-c2c(Cl)cccc2Cl)cc2cnc(Nc3ccc(N4CCOCC4)cc3)nc21 | Platelet-derived growth factor receptor beta (Mus musculus, UniProt P05622) | IC50 | 0.64
CCN(CC)CCCNc1cc2c(cn1)cc(-c1c(Cl)cccc1Cl)c(=O)n2C | Platelet-derived growth factor receptor beta (Mus musculus, UniProt P05622) | IC50 | 4.6
CN1CCN(CCCCCNc2cc3c(cn2)cc(-c2c(Cl)cccc2Cl)c(=O)n3C)CC1 | Platelet-derived growth factor receptor beta (Mus musculus, UniProt P05622) | IC50 | 9.9

(P) COc1ccc(Nc2cc3c(cn2)cc(-c2c(Cl)cccc2Cl)c(=O)n3C)cc1
(Q) CN1CCN(CCCNc2cc3c(cn2)cc(-c2c(Cl)cccc2Cl)c(=O)n3C)CC1
Query: Returns the identifier with the smallest measured IC50 among P and Q . Give the chosen item's label as your response.
Result: Q
(Q: 2.8 µM, P: 6.8 µM)

----------
SUBJECT OF TEST: Platelet-derived growth factor receptor beta (Mus musculus)
EXPERIMENTAL READOUT: IC50 (µM)

SMILES STRING | UNITS LABEL | MEASUREMENT
Cn1c(=O)c(-c2c(Cl)cccc2Cl)cc2cnc(NCCCn3ccnc3)cc21 | µM | 3.2

(P) CCN(CC)CCCCNc1cc2nc(O)c(-c3c(Cl)cccc3Cl)cc2cn1
(Q) Cn1c(=O)c(-c2c(Cl)cccc2Cl)cc2cnc(N)cc21
(R) CCN(CC)CCOc1ccc(Nc2cc3c(cn2)cc(-c2c(Cl)cccc2Cl)c(=O)n3C)cc1
Query: # desc sort on IC50 across 3 compounds Lab note: record answer as labels in requested order.
Result: Q, P, R
(Q: 3.6 µM, P: 1.1 µM, R: 0.1 µM)

----------
System: HCT-8
ASSAY SUMMARY: Inhibitory activity against HCT-8 human colon adenocarcinoma cells was determined.
Assay type: functional, cell-based
pIC50: −log10 of the molar value.
EXPERIMENTAL READOUT: pIC50

Worked cases, pIC50 given:
COMPOUND | SUBJECT OF TEST | pIC50
CNc1ncc2cc(-c3c(Cl)cccc3Cl)c(=O)n(C)c2n1 | HCT-8 | 5.11
CNc1cc2c(cn1)cc(-c1c(Cl)cccc1Cl)c(=O)n2C | HCT-8 | 5.77

(I) CN1CCN(CCCNc2ncc3cc(-c4c(Cl)cccc4Cl)c(=O)n(C)c3n2)CC1
(II) Cn1c(=O)c(-c2c(Cl)cccc2Cl)cc2cnc(Nc3ccncc3)nc21
(III) Cn1c(=O)c(-c2c(Cl)cccc2Cl)cc2cnc(Nc3ccncc3)cc21
(IV) CN1CCN(c2ccc(Nc3ncc4cc(-c5c(Cl)cccc5Cl)c(=O)n(C)c4n3)cc2)CC1
Query: List from greatest to least pIC50. Reply with the labels, ordered as the question asks.
Result: IV, I, III, II

(a) Cn1c(=O)c(-c2c(Cl)cccc2Cl)cc2cnc(N)cc21
(b) CCN(CC)CCOc1ccc(Nc2ncc3cc(-c4c(Cl)cccc4Cl)c(=O)n(C)c3n2)cc1 [PD-0166285]
Query: Between a and b , whose recorded pIC50 is greater? Which one? Tell me its label.
Result: b
